# experimentalTarget: GRASP, Q7Z6J2
# Sequence (Q7Z6J2 96-193): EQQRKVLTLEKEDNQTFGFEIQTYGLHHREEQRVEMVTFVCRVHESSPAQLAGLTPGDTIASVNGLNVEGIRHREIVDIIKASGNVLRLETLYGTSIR
# measurementProtocol: holdup assay
# Design: key: below the threshold = too weak to quantify, mostly under pKd 3.1 to 4
# testSettings: plain residues with an end cap or a label only (N-terminal biotin on a linker: ttds)
readoutType: pKd

Would you please look over these solved cases?
>  <binder>
QRPYRRESEI [KCNJ12, Q14500]

>  <pKd>
below the threshold

$$$$
>  <binder>
SSIDLWETAL [SLC15A5, A6NIM6]

>  <pKd>
5.28

$$$$
>  <binder>
FVETQHQTQV [FAT3, Q8TDW7]

>  <pKd>
3.69

$$$$
>  <binder>
PFRSRSPSEV [GPR6, P46095]

>  <pKd>
below the threshold

$$$$
>  <binder>
NPDALPETLV [ARHGAP6, O43182]

>  <pKd>
below the threshold

$$$$
>  <binder>
DLDEEEDTHL [PODXL, O00592]

>  <pKd>
below the threshold

$$$$

Next:
Incoming: If you can, please state the reported pKd value of GRLLGLETNV [ARHGEF26, Q96DR7] .
Outgoing: below the threshold
